- assayedTarget: T1, human CD70 expressed on the cell surface of tumor cell lines (human, UniProt P32970 1-193); also: time not given here
- T1 sequence (looked up): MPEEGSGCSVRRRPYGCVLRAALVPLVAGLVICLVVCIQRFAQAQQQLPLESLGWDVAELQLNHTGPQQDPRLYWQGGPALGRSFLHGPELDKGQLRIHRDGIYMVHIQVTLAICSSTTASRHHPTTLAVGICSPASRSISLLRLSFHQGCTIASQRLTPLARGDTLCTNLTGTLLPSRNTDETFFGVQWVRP
- assayName: cell-based or functional assay
Below, each entry is listed with its recorded Internalization rate (%) on 786-O.
Form entry: value (%) — number only.

Answered cases to consult:
| binder | Internalization rate (%) on 786-O |
| --- | --- |
| 2A4, full IgG (antibody, V domains shown) VH: QVQLQESGPGLVKPSETLSLTCTVSGGSVSSDYYYWSWIRQPPGKGLEWLGYIYYSGSTNYNPSLKSRVTISVDTSKNQFSLKLRSVTTADTAVYYCARGDGDYGGNVFPYWGQGTLVTVSS VL: EIVLTQSPATLSLSPGERATLSCRASQSVSSYLAWYQQKPGQAPRLLIFDASNRATGIPARFSGSGSGTDFTLTISSLEPEDFAVYYCQQRSNWPLTFGGGTKVEIK | 49 |
| 2E7, full IgG (antibody, V domains shown) VH: QVQLQESGPGLVKPSETLSLTCTVSGGSVSSDYYYWSWIRQPPGKGLEWLGYIYYSGSTNYNPSLKSRVTISVDTSKNQFSLKLRSVTTADTAVYYCARGDGDFLGVCFDYWGQGTLVTVSS VL: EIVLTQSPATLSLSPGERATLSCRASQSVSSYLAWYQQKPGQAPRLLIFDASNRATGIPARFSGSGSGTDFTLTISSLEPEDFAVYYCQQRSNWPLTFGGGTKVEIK | 62 |
| 69A7 (parent antibody), full IgG (antibody, V domains shown, also called parent antibody 69A7) VH: QVQLQESGPGLVKPSETLSLTCTVSGGSVSSDYYYWSWIRQPPGKGLEWLGYIYYSGSTNYNPSLKSRVTISVDTSKNQFSLKLRSVTTADTAVYYCARGDGDYGGNCFDYWGQGTLVTVSS VL: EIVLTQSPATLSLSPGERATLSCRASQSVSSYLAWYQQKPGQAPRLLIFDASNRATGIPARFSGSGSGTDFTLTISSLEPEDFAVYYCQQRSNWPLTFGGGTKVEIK | 64 |
| 2A4P0L1, full IgG (antibody, V domains shown) VH: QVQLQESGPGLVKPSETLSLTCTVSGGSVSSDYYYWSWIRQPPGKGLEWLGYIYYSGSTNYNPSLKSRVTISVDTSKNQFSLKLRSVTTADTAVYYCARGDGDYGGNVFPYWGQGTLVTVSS VL: EIVLTQSPATLSLSPGERATLSCRASQSVSSYLAWYQQKPGQAPRLLIFDASNRATGIPARFSGSGSGTDFTLTISSLEPEDFAVYYCQQRLKFPLTFGGGTKVEIK | 61 |

Qu. Param item = 1H8, full IgG (antibody, V domains shown) VH: QVQLQESGPGLVKPSETLSLTCTVSGGSVSSDYYYWSWIRQPPGKGLEWLGYIYYSGSTNYNPSLKSRVTISVDTSKNQFSLKLRSVTTADTAVYYCARGDGDFMGVCFDYWGQGTLVTVSS VL: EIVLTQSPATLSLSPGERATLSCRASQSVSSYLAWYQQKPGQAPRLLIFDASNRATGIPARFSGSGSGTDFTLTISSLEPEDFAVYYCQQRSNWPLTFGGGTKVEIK ; retrieve measured Internalization rate (%) on 786-O.
Ans. 76

Qu. Item: 2D2, full IgG (antibody, V domains shown) VH: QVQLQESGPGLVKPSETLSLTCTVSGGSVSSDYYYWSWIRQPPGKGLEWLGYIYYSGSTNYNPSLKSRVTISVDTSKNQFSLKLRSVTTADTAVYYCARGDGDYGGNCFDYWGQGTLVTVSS VL: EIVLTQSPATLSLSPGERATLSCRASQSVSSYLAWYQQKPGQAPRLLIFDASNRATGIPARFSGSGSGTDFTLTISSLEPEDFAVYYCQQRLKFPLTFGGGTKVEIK
Ans. 76
